test system: Plasmodium falciparum Dd2 (chloroquine-resistant) strain; assay: growth inhibition of Plasmodium falciparum, [3H]-hypoxanthine incorporation, chloroquine-resistant (Dd2) strain; type: cell-based; conditions: Dd2, chloroquine-resistant, 48 h erythrocyte cycle, ring stage, 1% parasitemia, read-out: Dd2 IC50
pIC50: −log10 of the molar value. Structures can show the parent of a compound that is named as a salt.
reported-metric: pIC50

A. NC(N)=NC(=O)c1ccc(Oc2cccnc2)c(C(F)(F)F)c1 [dihydrochloride]
B. CN(C)c1cc(C(=O)N=C(N)N)cc(C(F)(F)F)c1 [dihydrochloride]
Compare A and B and name the one whose reported pIC50 is smaller. To answer, give the label that identifies your chosen option.
A
(A: 5.19, B: 5.89)
